System: SK-Hep-1 cells
Assay: MTT antihepatoma assay, SK-Hep-1 cells
Assay type: cell-based
Conditions: Homo sapiens, SK-HEP1, 48 h incubation
The reader will find reported IC50 values listed item by item below.
Return type: number; implicit unit µM.

Below: 4 molecules and their reported IC50.
INSERT INTO measurements (molecule, measurement) VALUES
  ('C=C1C(=O)O[C@@H]2C3=C([C@H]4C[C@]3(C)[C@]3(C4)C(=O)O[C@@H]4C5=C([C@H]6C[C@]5(C)[C@]5(C6)C(=O)O[C@@H]6C7=C([C@H]8C[C@]7(C)[C@]7(C8)C(=O)O[C@@H]8[C@H]9C(C)=CC[C@@]9%10O[C@@]%10(C)CC[C@@H]87)[C@@](C)(O)CC[C@H]65)[C@@](C)(O)CC[C@H]43)[C@@](C)(O)CC[C@@H]12', 7.9),
  ('C=C1C(=O)O[C@@H]2C3=C([C@H]4C[C@]3(C)[C@]3(C4)C(=O)O[C@@H]4C5C(=C(C)CC[C@H]43)CC[C@@]5(C)O)[C@@](C)(O)CC[C@@H]12 (some centres unmarked)', 16.5),
  ('C=C1C(=O)O[C@@H]2C3=C([C@H]4C[C@]3(C)[C@]3(C4)C(=O)O[C@@H]4C5=C([C@H]6C[C@]5(C)[C@]5(C6)C(=O)O[C@@H]6[C@H]7C(C)=CC[C@@]78O[C@@]8(C)CC[C@H]65)[C@@](C)(O)CC[C@H]43)[C@@](C)(O)CC[C@@H]12', 7.2),
  ('CNC(=O)c1cc(Oc2ccc(NC(=O)Nc3ccc(Cl)c(C(F)(F)F)c3)cc2)ccn1 [sorafenib, reference compound]', 22.5);

--- query ---
Requested read-out: IC50. Entry: C=C1C(=O)O[C@@H]2C3=C([C@H]4C[C@]3(C)[C@]3(C4)C(=O)O[C@H]4[C@H]3CCC(C)=C3C[C@H]5O[C@@]5(C)[C@@H]34)[C@@](C)(O)CC[C@@H]12
11.2
